meta.source: PubChem BioAssay (EPA / NIEHS)

- assayProtocol: TOX21_p53_BLA_p2_viability: Viability Assessment in the Tox21 HCT-116 p53 Agonism Beta-lactamase Assay, Phase 2 (AID 2283591);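 further: compound exposure lasted 16 h at 37 °C; actives lower the ATP signal meaning cytotoxicity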
Inconclusive results are not listed. The source made the active and inactive calls. How the source made its calls: active means hit-call score of the fitted dose curve at least 0.9, where 1 is the maximum; inconclusive means response in the unintended direction; inactive means score below 0.9. Where a SMILES comes first, the peptide text is derived from it. [ ]: non-standard residue; d: D form. Orn = NCCC[C@H](N)C(=O)O
measuredParameter: AC50

CCN1CCN(c2cc(-c3ccc(F)cc3)c3c(n2)CCCCCC3)CC1 :: inactive
CC(C)Cc1nccs1 :: inactive
O=[N+]([O-])c1ccc(Oc2ccc(N=C=S)cc2)cc1 :: inactive
O=C1OCCN1N=Cc1ccc([N+](=O)[O-])o1 :: inactive
CCCCOc1cc(C(=O)NCCN(CC)CC)c2ccccc2n1 :: inactive
NC(=O)[C@H]1O[C@@H](O)[C@H](O)[C@@H](O)[C@@H]1O :: inactive
CCCCOC(=O)CO :: inactive
CC(C)C[C@@H]1NC(=O)[C@H](CCCN)NC(=O)[C@H](C(C)C)NC(=O)[C@@H]2CCCN2C(=O)[C@@H](Cc2ccccc2)NC(=O)[C@H](CC(C)C)NC(=O)[C@H](CCCN)NC(=O)[C@H](C(C)C)NC(=O)[C@@H]2CCCN2C(=O)[C@@H](Cc2ccccc2)NC1=O (cyclo(V[Orn]L[dF]PV[Orn]L[dF]P)) :: 8.09 µM (active)
CCCCCCCCCCCCCCCCOCCOCCOCCOCCOCCOCCOCCOCCOCCOCCOCCOCCOCCOCCOCCOCCOCCOCCOCCOCCO :: 30.1 µM (active)
CC(C)CN(C[C@@H](O)[C@H](Cc1ccccc1)NC(=O)O[C@@H]1CCOC1)S(=O)(=O)c1ccc(N)cc1 :: inactive

Prompt line: // AC50 lookup, key: OC[C@@H](O)C(O)[C@@H](O)CO (some centres not stated)
Response line: inactive

Prompt line: And then `CC(=O)c1sc(C)nc1C` , what is it?
Response line: inactive
